// polymerase ribozyme fitness (log ratio) lookup, one value per entry
B1: TPR t1 (parent)
chain: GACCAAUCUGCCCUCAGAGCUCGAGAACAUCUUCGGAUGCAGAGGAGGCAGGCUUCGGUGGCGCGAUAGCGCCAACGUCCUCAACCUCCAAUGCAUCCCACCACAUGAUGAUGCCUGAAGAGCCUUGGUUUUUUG

# Variants of: B1
# experimental protocol: polymerase ribozyme fitness, log enrichment relative to wild type (log ratio); higher = more active; in vitro selection for triplet polymerase activity
Simply state the number, no unit and no words.

* GACCAAUCUGCCCUCAGAGCUCGAGAACAUCUUCGGAUGCAGAGGAGGCAGGCUUCGGUGGCGCGAUAGCGCCAACGACCUCAACCUCCAAUGUAUCCCACCACAUGAUGAUGCAUGAAGAGCCUUCGUUUUUUG [U78A C94U C115A G127C] | -1.41
* GACCAAUCUCCCCUCAGAGCUCGAGAACAUCUUCGGCUGCAGAGGAGGCAGGCUUCGGUGGCGCGUUAGCGCCAACGUCCUCAACCUCCAAUGCAUCCCACCACAUGAUGAUGCCUGAAGAGCCUUGGUUUUUUG [G10C A37C A66U] | -2.37
* GACCAAUCUGCCCUCAGAGCUCGAGAACAUCGUCGGAUGCAGAGGAGGAAGGCUUCGGUGGCGCGAUAGUGCCGACGUCCUCGACCUCCAAUCCAUCCCACCACAUGAUGAUGACUGAAGAGCCGUGGUUUUUUG [U32G C49A C70U A74G A83G G93C C114A U125G] | -7.4
* GACCAAUCUGCCCUCAGAGCUCGAGAACAUCUUCGGAUGCAGAGGAGGCAGGCUUCGGUGGCGCGAUACCGCCAACGUCCUCAACCUCCAGUGCAUCCCACCACAUGAUGAUGCCUGAAGAGCCUUGGUUUUUUG [G69C A91G] | -1.94
* GACCAAUCUGCCCUCAGAGGUCGAGAACAUCUUCGGAUGCAGAGGAGGCAGGCUUCGGUGGCGCGAUAGCGCCAACGUCCUCAACCUCCAAUGCAUCCCACCACAUGAUGAUGCAUGAAGAGCCUUGGUUUUUUG [C20G C115A] | -3.94

Problem: Any idea what its polymerase ribozyme fitness (log ratio) is? The variant is GACCAAUCUGCCCUCAGAGCUCGAGAACAUCUUCGGAUGCAGAAGAGGCAGGCUUCGGUGGCGCGAUAGCGCCAACGUCCUCAACCUACAAUGCAUCCCACCACAUGAUGAUGCCUGAAGAGCCUUGGUUUUUUG [G44A C88A]
Solution: -1.02

Problem: Cool, now GACCAAUCUGCCCUCAGAGCUGGAGAACAUCUUCGGAUGCAGAGGAGGCAGGCUUCGGUUGCGCGAUAGCGCCAACGUCCUCAAACUCCAAUGCAUCCCACCACAUGAUGAUGCCUGAAGAGCCUUGGUUUUUUG [C22G G60U C85A]
Solution: -4.53

Problem: How about GACCAAUCUGCCCUCAGAGCUCGAGAACAUUUUCGGAUGCAGAGGAGGCAGGCUUCGGUGGCGCGAUAUCGCUAACGUCCUCAACCUCCAAUGCAUCCCUCCACAUGAUGAUGCCUGAAGAGCCUUGGUUUUUUG [C31U G69U C73U A100U] ?
Solution: -3.8

Problem: Queued: GACCAAUCUGCCUUCAGAGCUGGAGAACAUCUUCGGAUGCUGAGGAGGCAGGCUUCGGUGGCGCGAUAGCGCCAACGGCCCCAACCUCCAAUGCAUCCCACCACAUGAUGAUGCCUGAAGAACCUUGGUUUUUUG [C13U C22G A41U U78G U81C G122A]
Solution: -4.41

Problem: Here is the next variant: GACCAAUCUGCCCACAGAGCUCGAGAACAUCUUCGGAUGCAGAGGAGGCAGGCUUCGGUGGCGCGAUAGCACCAACGUCCUCAACCUCCAAUGCAUCCCACCACAUGAUGAUGCCUGAAGAGCCUUGGUAUUUUG [U14A G71A U130A]
Solution: -3.52

Problem: Then this variant: GAUCAAUCUGCCCUCAGAGCUCGAGAACAUCUUCGGAUGCAGAGGAGGCAGGCUUCGGUGGCGCGAUAGCGCCAACGUCCUCAACCUCCAAUGCAUCCCACCACAUGAUGAUGCCUGAAAAGCCUUGGUUUUUUG [C3U G120A]
Solution: 0.234

Problem: Ok, now GACCAAUCUGCCCUCAGAGCUCCAGAACAUCUUCGGAUGCAGAGGAGGCAGGCUUCGGUGGCGCGAUAGCGCCAACGUCCUCAACCUCCAAUGCAUCCCACCACAUGAUGAUGCCUGAACAGCCUUGGUUUUUUG [G23C G120C]
Solution: -5.28
